# assayed.system: human c-MER catalytic domain (Homo sapiens (Human), UniProt Q12866)
# Sequence (Q12866 587-858): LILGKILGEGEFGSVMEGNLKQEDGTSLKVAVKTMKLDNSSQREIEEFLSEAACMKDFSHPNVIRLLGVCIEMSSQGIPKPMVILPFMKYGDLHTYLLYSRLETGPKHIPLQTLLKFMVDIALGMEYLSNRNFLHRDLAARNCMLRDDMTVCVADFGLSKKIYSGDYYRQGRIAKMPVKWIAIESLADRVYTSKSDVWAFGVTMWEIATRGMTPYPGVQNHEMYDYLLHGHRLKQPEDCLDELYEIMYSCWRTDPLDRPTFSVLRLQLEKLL

smiles.entry: N#Cc1ccc(-c2cnc(N)c(C(=O)N[C@@H]3CCN(Cc4ccc(Cl)cc4)C3)c2)cc1
IC50: > 1000 nM
--
smiles.entry: Cn1cc(-c2cnc(N)c(C(=O)N[C@@H]3CCN(C(=O)c4ccc(-c5ccccc5C=O)cc4)C3)c2)cn1
IC50: 10 to 100 nM
--
smiles.entry: Cn1cc(-c2cnc(N)c(C(=O)N[C@@H]3CCN(C(=O)Cc4cccc(-c5ccccc5)c4)C3)c2)cn1
IC50: > 1000 nM
--
smiles.entry: Cc1ccc(-c2ccc(C(=O)N3CC[C@@H](NC(=O)c4cc(-c5cnn(C)c5)cnc4N)C3)cc2C)s1
IC50: 10 to 100 nM

---

# assayed.system: human c-MER catalytic domain (Homo sapiens (Human))
Here, each record is paired with measured IC50 data.

smiles.entry: Cn1cc(-c2cnc(N)c(C(=O)N[C@@H]3CCN(C(=O)Oc4ccc5cc(OC6CCNCC6)ccc5c4)C3)c2)cn1
assayed.system: human c-MER catalytic domain (Homo sapiens (Human))
IC50: 10 to 100 nM

smiles.entry: Cn1cc(-c2cnc(N)c(C(=O)N[C@@H]3CCN(C(=O)c4cccc(-c5ccc6c(c5)NC(=O)C6=O)c4)C3)c2)cn1
assayed.system: human c-MER catalytic domain (Homo sapiens (Human))
IC50: > 1000 nM

smiles.entry: Cn1cc(-c2cnc(N)c(C(=O)N[C@@H]3CCN(C(=O)Oc4cccc(OCC5CCNCC5)c4)C3)c2)cn1
assayed.system: human c-MER catalytic domain (Homo sapiens (Human))
IC50: 100 to 1000 nM

smiles.entry: Cn1cc(-c2cnc(N)c(C(=O)N[C@@H]3CCN(C(=O)c4ccc5[nH]ccc5c4)C3)c2)cn1
assayed.system: human c-MER catalytic domain (Homo sapiens (Human))
IC50: > 1000 nM

smiles.entry: Cc1csc(C(=O)N2CC[C@@H](NC(=O)c3cc(-c4cnn(C)c4)cnc3N)C2)c1
assayed.system: human c-MER catalytic domain (Homo sapiens (Human))
IC50: > 1000 nM

smiles.entry: Cn1cc(-c2cnc(N)c(C(=O)N[C@@H]3CCN(C(=O)c4cn(-c5ccccc5)nc4C(F)(F)F)C3)c2)cn1
assayed.system: human c-MER catalytic domain (Homo sapiens (Human))
IC50: > 1000 nM

smiles.entry: Cn1cc(-c2cnc(N)c(C(=O)N[C@@H]3CCN(C(=O)Oc4cccc(-c5ccc(CN6CC[C@H](N)C6)cc5)c4)C3)c2)cn1
assayed.system: human c-MER catalytic domain (Homo sapiens (Human))
IC50: 10 to 100 nM

smiles.entry: COc1ccsc1-c1ccc(C(=O)N2CC[C@@H](NC(=O)c3cc(-c4cnn(C)c4)cnc3N)C2)cc1
assayed.system: human c-MER catalytic domain (Homo sapiens (Human))
IC50: 10 to 100 nM

smiles.entry: Cn1cc(-c2cnc(N)c(C(=O)N[C@@H]3CN(C(=O)c4ccc(-c5ccccc5)cc4)C[C@@H]3O)c2)cn1
assayed.system: human c-MER catalytic domain (Homo sapiens (Human))
IC50: > 1000 nM

smiles.entry: Cn1cc(-c2cnc(N)c(C(=O)N[C@@H]3CCCN(C(=O)c4ccc(-c5ccccc5)cc4)C3)c2)cn1
assayed.system: human c-MER catalytic domain (Homo sapiens (Human))
IC50: > 1000 nM

smiles.entry: Cn1cc(-c2cnc(N)c(C(=O)N[C@@H]3CCN(C(=O)Nc4cccnc4)C3)c2)cn1
assayed.system: human c-MER catalytic domain (Homo sapiens (Human))
IC50: > 1000 nM

smiles.entry: Cn1cc(-c2cnc(N)c(C(=O)N[C@@H]3CCN(C(=O)Oc4cccc(-c5ccc(CNCC6CNC6)cc5)c4)C3)c2)cn1
assayed.system: human c-MER catalytic domain (Homo sapiens (Human))
IC50: 10 to 100 nM

smiles.entry: CN1CCN(Cc2ccc(-c3cc(Cl)cc(OC(=O)N4CC[C@@H](NC(=O)c5cc(-c6cnn(C)c6)cnc5N)C4)c3)cc2)CC1
assayed.system: human c-MER catalytic domain (Homo sapiens (Human))
IC50: < 10 nM

smiles.entry: Cn1cc(-c2cnc(N)c(C(=O)N[C@@H]3CCN(C(=O)Oc4cccc(-c5cccc(CN6CCC[C@@H](N)C6)c5)c4)C3)c2)cn1
assayed.system: human c-MER catalytic domain (Homo sapiens (Human))
IC50: 10 to 100 nM
